# System: serum cholesterol, ovariectomized rats
# assay_overview: Serum cholesterol in ovariectomized rats (4 days daily oral dosing)
# Type: in vivo, rat (female Sprague Dawley)
# experimental_setup: Rattus norvegicus, 96 h; 0.1 mg/kg PO; read-out: Serum Cholesterol (% decrease vs. OVX)
Form field: inhibition in vivo at 0.1 mg/kg (one value per entry).
reported_endpoint: inhibition in vivo at 0.1 mg/kg (%)

compound=COc1ccc(-c2sc3cc(OC)ccc3c2C(=O)c2ccc(OCCN3CCCCC3)cc2)c(OC)c1 target_or_test_system="serum cholesterol, ovariectomized rats" endpoint_result=51.4
compound=O=C(c1ccc(OCCN2CCCCC2)cc1)c1c(-c2cccc(O)c2)sc2cc(O)ccc12 target_or_test_system="serum cholesterol, ovariectomized rats" endpoint_result=24.3
compound=Cc1ccccc1-c1sc2cc(O)ccc2c1C(=O)c1ccc(OCCN2CCCCC2)cc1 target_or_test_system="serum cholesterol, ovariectomized rats" endpoint_result=31.7
compound=O=C(c1ccc(OCCN2CCCCC2)cc1)c1c(-c2ccc(O)c(F)c2)sc2cc(O)ccc12 target_or_test_system="serum cholesterol, ovariectomized rats" endpoint_result=48.1
compound=O=C(c1ccc(OCCN2CCCCC2)cc1)c1c(-c2ccccc2O)sc2cc(O)ccc12 target_or_test_system="serum cholesterol, ovariectomized rats" endpoint_result=7.8
compound=O=C(c1ccc(OCCN2CCCCC2)cc1)c1c(-c2ccc(C(F)(F)F)cc2)sc2cc(O)ccc12 target_or_test_system="serum cholesterol, ovariectomized rats" endpoint_result=45.5
compound=COc1ccc2c(C(=O)c3ccc(OCCN4CCCCC4)cc3)c(-c3cccc(F)c3)sc2c1 target_or_test_system="serum cholesterol, ovariectomized rats" endpoint_result=1.4
compound=COc1ccc2c(C(=O)c3ccc(OCCN4CCCCC4)cc3)c(-c3ccc(C(F)(F)F)cc3)sc2c1 target_or_test_system="serum cholesterol, ovariectomized rats" endpoint_result=22.3
compound=Cc1cc(-c2sc3cc(O)ccc3c2C(=O)c2ccc(OCCN3CCCCC3)cc2)ccc1O target_or_test_system="serum cholesterol, ovariectomized rats" endpoint_result=53.7
compound=COc1cc(O)ccc1-c1sc2cc(O)ccc2c1C(=O)c1ccc(OCCN2CCCCC2)cc1 target_or_test_system="serum cholesterol, ovariectomized rats" endpoint_result=58.8

---

Form field: change in vivo at 0.1 mg/kg (one value per entry).
# Tested on: uterus, ovariectomized rats
# assay_overview: Uterine weight in ovariectomized rats (4 days daily oral dosing)
# Assay type: in vivo, rat (female Sprague Dawley)
# experimental_setup: Rattus norvegicus, 96 h; 0.1 mg/kg PO; read-out: Uterine weight (% increase vs. OVX)
reported_endpoint: change in vivo at 0.1 mg/kg (%)

compound=COc1ccc2c(C(=O)c3ccc(OCCN4CCCCC4)cc3)c(-c3cccc(F)c3)sc2c1 target_or_test_system="uterus, ovariectomized rats" reported_endpoint="change in vivo at 0.1 mg/kg" endpoint_result=14.9
compound=O=C(Oc1cccc(-c2sc3cc(OC(=O)c4ccccc4)ccc3c2C(=O)c2ccc(OCCN3CCCCC3)cc2)c1)c1ccccc1 target_or_test_system="uterus, ovariectomized rats" reported_endpoint="change in vivo at 0.1 mg/kg" endpoint_result=-18.6
compound=Cc1ccccc1-c1sc2cc(O)ccc2c1C(=O)c1ccc(OCCN2CCCCC2)cc1 target_or_test_system="uterus, ovariectomized rats" reported_endpoint="change in vivo at 0.1 mg/kg" endpoint_result=8.5

---

Form field: inhibition in vivo at 1 mg/kg (one value per entry).
# Tested on: serum cholesterol, ovariectomized rats
# assay_overview: Serum cholesterol in ovariectomized rats (4 days daily oral dosing)
# Type: in vivo, rat (female Sprague Dawley)
# experimental_setup: Rattus norvegicus, 96 h; 1.0 mg/kg PO; read-out: Serum Cholesterol (% decrease vs. OVX)
reported_endpoint: inhibition in vivo at 1 mg/kg (%)

compound=O=C(c1ccc(OCCN2CCCCC2)cc1)c1c(-c2ccc(O)c(Cl)c2)sc2cc(O)ccc12 endpoint_result=52.6
compound=O=C(Oc1cccc(-c2sc3cc(OC(=O)c4ccccc4)ccc3c2C(=O)c2ccc(OCCN3CCCCC3)cc2)c1)c1ccccc1 endpoint_result=45.7
compound=O=C(c1ccc(OCCN2CCCCC2)cc1)c1c(-c2cccc(F)c2)sc2cc(O)ccc12 endpoint_result=62
compound=COc1ccc(-c2sc3cc(OC)ccc3c2C(=O)c2ccc(OCCN3CCCCC3)cc2)c(OC)c1 endpoint_result=68.5
compound=Cc1ccccc1-c1sc2cc(O)ccc2c1C(=O)c1ccc(OCCN2CCCCC2)cc1 endpoint_result=38.6
compound=COc1cc(O)ccc1-c1sc2cc(O)ccc2c1C(=O)c1ccc(OCCN2CCCCC2)cc1 endpoint_result=79
compound=O=C(c1ccc(OCCN2CCCCC2)cc1)c1c(-c2ccc(O)c(F)c2)sc2cc(O)ccc12 endpoint_result=64.7
compound=COc1ccc2c(C(=O)c3ccc(OCCN4CCCCC4)cc3)c(-c3ccc(C(F)(F)F)cc3)sc2c1 endpoint_result=3.1
compound=Cc1cc(O)ccc1-c1sc2cc(O)ccc2c1C(=O)c1ccc(OCCN2CCCCC2)cc1 endpoint_result=62.6

From: patent US5998442A
